# assay-explanation: Metabolic stability in human liver microsomes assessed as clearance at 1 uM measured upto 90 mins by LC-MS/MS analysis
# Format: ADME, Microsome
# assay-conditions: read-out: CLH
assay-metric: CLint scaled at 1 µM (mL/min/kg)

Below, 3 compounds whose answers are already recorded.
[[record]]
chemical_structure = "CC(C)N1C(=O)COc2cc(F)c(C(=O)Nc3cccc(-c4nncn4C(C)C)n3)cc21"
assay_metric = "CLint scaled at 1 µM"
observed_result = 31.6

[[record]]
chemical_structure = "O=C1COc2cc(F)c(C(=O)Nc3cccc(-c4nncn4-c4ccccc4)n3)cc2N1"
assay_metric = "CLint scaled at 1 µM"
observed_result = 11.4

[[record]]
chemical_structure = "CC(C)n1cnnc1-c1cccc(NC(=O)c2cc3c(cc2F)CCCC(=O)N3)c1"
assay_metric = "CLint scaled at 1 µM"
observed_result = 3.5


P = O=C1CCc2cc(F)c(C(=O)Nc3cccc(-c4nncn4C4CC4)n3)cc2N1
Q = CC(C)n1cnnc1-c1cccc(NC(=O)c2cc3c(cc2F)C(C)(C)CC(=O)N3C)n1
Prompt line: Given the listed items, does P or Q have the lesser reported CLint scaled at 1 µM? Answer format: the label of the selected item.
Response line: P

###

# assay-explanation: Metabolic stability in rat liver microsomes assessed as clearance at 1 uM measured upto 90 mins by LC-MS/MS analysis
# Assay type: ADME, Microsome
# assay-conditions: read-out: CLH
assay-metric: CLint scaled at 1 µM (mL/min/kg)

Sample answers from the record:
[[record]]
chemical_structure = "CC(C)n1cnnc1-c1cccc(NC(=O)c2cc3c(cc2F)OC(C)(C)C(=O)N3C)n1"
observed_result = 27.3

[[record]]
chemical_structure = "CC(C)n1cnnc1-c1cccc(NC(=O)c2cc3c(cc2F)OCC(=O)N3C)n1"
observed_result = 16.8


1 = O=C1COc2cc(F)c(C(=O)Nc3cccc(-c4nncn4C4CCCC4)n3)cc2N1
2 = O=C(Nc1cccc(-c2nncn2C2CC2)n1)c1cc2c(cc1F)OCc1cncn1-2
Prompt line: Input pair: 1 , 2 . Output: entry with lower CLint scaled at 1 µM. Indicate your choice by writing its label.
Response line: 1
(1: 70.8 mL/min/kg, 2: 181 mL/min/kg)

###

# assay-explanation: Half life in Sprague-Dawley rat at 1 mg/kg, iv measured upto 24 hrs by LC-MS/MS analysis
# Assay type: ADME, organism-based
# assay-conditions: in vivo
assay-metric: half-life (min)

[[record]]
chemical_structure = "CC(C)n1cnnc1-c1cccc(NC(=O)c2cc3c(cc2F)CCC(=O)N3)c1"
assay_metric = "half-life"
observed_result = 40.8

[[record]]
chemical_structure = "CC(C)n1cnnc1-c1cccc(NC(=O)c2cc3c(cc2F)CCCC(=O)N3C)n1"
assay_metric = "half-life"
observed_result = 43.8

[[record]]
chemical_structure = "O=C1COc2cc(F)c(C(=O)Nc3cccc(-c4nncn4C4CCCC4)n3)cc2N1"
assay_metric = "half-life"
observed_result = 51.6

[[record]]
chemical_structure = "CC(C)n1cnnc1-c1cccc(NC(=O)c2cc3c(cc2F)CCCC(=O)N3)c1"
assay_metric = "half-life"
observed_result = 43.2

[[record]]
chemical_structure = "CC(C)n1cnnc1-c1cccc(NC(=O)c2cc3c(cc2F)CCC(=O)N3)n1"
assay_metric = "half-life"
observed_result = 42.6


1 = CC(C)n1cnnc1-c1cccc(NC(=O)c2cc3c(cc2F)CCCC(=O)N3C)c1
2 = O=C1COc2cc(F)c(C(=O)Nc3cccc(-c4nncn4-c4ccccc4)n3)cc2N1
Prompt line: Of 1 and 2 , which one carries the higher reported half-life? Identify your pick by its label.
Response line: 2

Data provenance: ChEMBL document CHEMBL5344477
